# Read-out: CD40, CD40 (gene 958)
# measurement protocol: BSK_SAg_CD40: BioMAP Diversity Plus: SAg Assay for CD40 Biomarker Activity (AID 2283088)
# particulars: primary human HUVEC with PBMC; actives raise or lower the signal
Activity calls are given as the source filed them. How the source made its calls: active means hit-call score of the fitted dose curve at least 0.9, where 1 is the maximum; inactive means score below 0.9.
Possible outcomes: t = active, f = inactive

molecule	cat
CC(C)(C)c1cccc(C(C)(C)C)c1O	f
O=C(OCCOCCOC(=O)c1ccccc1)c1ccccc1	f
CCCCCCCCCCCCCCCS(=O)(=O)Oc1ccccc1	f
ClC1=C(Cl)C(Cl)(Cl)C(Cl)=C1Cl	t
CC1=C(/C=C/C(C)=C/C=C/C(C)=C/C(=O)O)C(C)(C)CCC1	t
O=C(O)c1ccccc1C(c1ccc(O)cc1)c1ccc(O)cc1	f
Cc1oc(-c2ccccc2)nc1CCOc1ccc(C[C@H](Nc2ccccc2C(=O)c2ccccc2)C(=O)O)cc1	t
c1ccc2c(c1)Cc1ccccc1-2	f
CCCCCCCCCCCCc1ccccc1S(=O)(=O)O	f
OC1CCCCC1	f
OC1CCC(C2CCCCC2)CC1 (stereo not drawn)	f
NC(=O)N(O)[C@@H]1C=C[C@H](Oc2cccc(Oc3ccc(F)cc3)c2)C1	f
CC(C)(C)c1cc(C(C)(C)C)c(O)c(C(C)(C)C)c1	f
COCC(C)O (stereo not drawn)	f
Oc1cc2ccccc2c2ccccc12	t
c1ccc2c(c1)ccc1ccccc12	f
CC[C@H](c1ccc(O)cc1)[C@@H](CC)c1ccc(O)cc1	t
CCc1nn(C2CCCCC2)c2cc(C3(C#N)CCC(C(=O)O)CC3)ccc12 (stereo not drawn)	t
Cc1cc(C)c(O)c(C)c1	f
CCCCCCC(=O)O	f
NCC(F)(F)C(F)(F)C(F)(F)C(F)(F)C(F)(F)C(F)(F)C(F)(F)F	f
CCCCCCCC(=O)O	f
CCOC(=O)CC(O)(CC(=O)OCC)C(=O)OCC	f
N#C[C@@H]1CC(F)(F)CN1C(=O)CNC1CC2CCC(C1)N2c1ncccn1 (stereo partly drawn)	t
O=C(O)Cc1cc(I)c(Oc2cc(I)c(O)c(I)c2)c(I)c1	t
CCC(C)(C)C1CCC(O)CC1 (stereo not drawn)	f
CCCCC(CC)COC(=O)CCCCC(=O)OCc1ccccc1 (stereo not drawn)	f
CCCCCCCCCCCCCC[N+](C)(C)C	t

###

# Read-out: Transforming growth factor beta 1 (TGFb1), TGFB1 (gene 7040)
# measurement protocol: BSK_KF3CT_TGFb1: BioMAP Diversity Plus: KF3CT Assay for Transforming growth factor beta 1 (TGFb1) Biomarker Activity (AID 2283072)
# particulars: primary human keratinocytes with fibroblasts; actives raise or lower the signal
Active and inactive are the calls of the source. The calls were made as follows: active = hit-call score of the fitted dose curve at least 0.9, where 1 is the maximum; inactive = score below 0.9.
Possible outcomes: active, inactive

compound	cat
Oc1cc2ccccc2c2ccccc12	active
N#C[C@@H]1CC(F)(F)CN1C(=O)CNC1CC2CCC(C1)N2c1ncccn1 (stereo partly drawn)	inactive
CCC(C)(C)C1CCC(O)CC1 (stereo not drawn)	inactive
CCc1nn(C2CCCCC2)c2cc(C3(C#N)CCC(C(=O)O)CC3)ccc12 (stereo not drawn)	inactive
c1ccc2c(c1)Cc1ccccc1-2	inactive
CC(C)(C)c1ccc(O)c(C(C)(C)C)c1	active
c1ccc2c(c1)ccc1ccccc12	inactive
CC(=O)CC(C)(C)O	inactive
c1ccc2cc3c(ccc4ccccc43)cc2c1	inactive
O=[N+]([O-])c1ccc(O)cc1	inactive
OC1CCCCC1	inactive
CCCOc1sc(C(=O)N2CCC(c3cc(CN)ccc3F)CC2)c(C)c1Br	active
COCC(C)O (stereo not drawn)	inactive
COCC(C)OCC(C)O (stereo not drawn)	inactive
CC[C@H](c1ccc(O)cc1)[C@@H](CC)c1ccc(O)cc1	active
CN1CCN(c2ccccc2/C=C2\SCCN(c3ccc(Cl)c(Cl)c3)C2=O)CC1	active
CC(C)(C)c1cc(C(C)(C)C)c(O)c(C(C)(C)C)c1	inactive
CCCCCCCCCCCCCCCS(=O)(=O)Oc1ccccc1	inactive
CCCCCCCCCCCCN1CCCC1=O	active
CCCCCCC(=O)O	inactive
NC(=O)N(O)[C@@H]1C=C[C@H](Oc2cccc(Oc3ccc(F)cc3)c2)C1	inactive
CCCCCCCC(=O)O	inactive
CCCCCCCCCCCCCC[N+](C)(C)C	active
ClC1=C(Cl)C(Cl)(Cl)C(Cl)=C1Cl	active
CCCCC(CC)COC(=O)CCCCC(=O)OCC(CC)CCCC (stereo not drawn)	inactive
CC(C)CCCCCCOC(=O)CCCCC(=O)OCCCCCCC(C)C	inactive
CCC(=C(c1ccc(O)cc1)c1ccc(OCCN(C)C)cc1)c1ccccc1	active
CC(C)(C)c1cccc(C(C)(C)C)c1O	active

###

# Read-out: Vascular cell adhesion molecule 1 (VCAM1), VCAM1 (gene 7412)
# measurement protocol: BSK_BF4T_VCAM1: BioMAP Diversity Plus: BF4T Assay for Vascular cell adhesion molecule 1 (VCAM1) Biomarker Activity (AID 2284249)
# particulars: primary human bronchial epithelial cells with fibroblasts
Active and inactive are the calls of the source. Rule for the calls: active = hit-call score of the fitted dose curve at least 0.9, where 1 is the maximum; inactive = score below 0.9.
Possible outcomes: active, inactive

smiles repr	cat
C[C@@H]1C[C@H]2[C@@H]3CCC4=CC(=O)C=C[C@]4(C)[C@@]3(F)[C@@H](O)C[C@]2(C)[C@@]1(O)C(=O)COP(=O)(O)O	inactive
FC(F)(I)C(F)(F)C(F)(F)C(F)(F)C(F)(F)C(F)(F)I	active
C=C(C)C(=O)OCCC(F)(F)C(F)(F)C(F)(F)C(F)(F)C(F)(F)C(F)(F)F	inactive
NCC(F)(F)C(F)(F)C(F)(F)C(F)(F)C(F)(F)C(F)(F)C(F)(F)F	inactive

###

# measurement protocol: APR_HepG2_MitoMembPot_72hr: Apredica 72-hour HepG2 Assay for Mitochondrial Membrane Potential (AID 2282917)
# particulars: imaging, actives raise or lower the signal
Calls of active or inactive are those of the source. How the source made its calls: active means hit-call score of the fitted dose curve at least 0.9, where 1 is the maximum; inactive means score below 0.9.
Possible outcomes: t (active), f (inactive)

compound	cat
CC(=O)NC1(c2cccc(F)c2)CCN(CC[C@@]2(c3ccc(Cl)c(Cl)c3)CN(c3ccccc3)C(=O)CO2)CC1	f
CCCCCCCCCCCCN1CCCC1=O	f
Cc1cc(CCN2CCN(c3nsc4ccccc34)CC2)cc2c1NC(=O)CC2(C)C	f
O=C(O)c1ccccc1C(c1ccc(O)cc1)c1ccc(O)cc1	f
Oc1cc2ccccc2c2ccccc12	t
CCCCC[C@H](O)CC(=O)CCc1ccc(O)c(OC)c1	f
CCCOc1sc(C(=O)N2CCC(c3cc(CN)ccc3F)CC2)c(C)c1Br	f
CCN(CC)CCNc1ccc(CNC=O)c2sc3ccc(OC)cc3c(=O)c12	f
NC(=O)N(O)[C@@H]1C=C[C@H](Oc2cccc(Oc3ccc(F)cc3)c2)C1	f
CCC(=C(c1ccc(O)cc1)c1ccc(OCCN(C)C)cc1)c1ccccc1	f
Nc1cccc2c(N)cccc12	t
CCC(C)(C)C1CCC(O)CC1 (configuration not stated)	f

###

# Read-out: solute carrier (SLCO1B1), SLCO1B1 (gene 10599)
# measurement protocol: LTEA_HepaRG_SLCO1B1: Life Technologies and Expression Analysis (LTEA) Assay for solute carrier (SLCO1B1) using HepaRG (AID 2283530)
# particulars: mRNA level, 48 h; actives raise or lower the signal
Calls of active or inactive are those of the source. How the source made its calls: active means hit-call score of the fitted dose curve at least 0.9, where 1 is the maximum; inactive means score below 0.9.
Possible outcomes: active, inactive

compound	cat
CCc1ccc(CCOc2ccc(CC3SC(=O)NC3=O)cc2)nc1 (stereo not drawn)	active
COc1ccc([N+](=O)[O-])cc1N	inactive
OCCC(F)(F)C(F)(F)C(F)(F)C(F)(F)C(F)(F)C(F)(F)C(F)(F)C(F)(F)F	inactive
OC1CCCCC1	inactive
COCC(C)OCC(C)O (stereo not drawn)	inactive
CC(C)(C)c1cc(C(C)(C)C)c(O)c(C(C)(C)C)c1	inactive
CC(C)(C)c1cccc(C(C)(C)C)c1O	inactive
Cc1oc(-c2ccccc2)nc1CCOc1ccc(C[C@H](Nc2ccccc2C(=O)c2ccccc2)C(=O)O)cc1	active
c1ccc2c(c1)ccc1ccccc12	inactive
c1ccc2c(c1)Cc1ccccc1-2	inactive
CC(C)CCCCCCOC(=O)CCCCC(=O)OCCCCCCC(C)C	inactive
O=[N+]([O-])c1ccc(O)cc1	inactive
O=C(OCCOCCOC(=O)c1ccccc1)c1ccccc1	inactive
Cc1cc(CCN2CCN(c3nsc4ccccc34)CC2)cc2c1NC(=O)CC2(C)C	active
NC(=O)N1C(=O)C(C(=O)c2cc(Cl)cs2)c2cc(F)c(Cl)cc21 (stereo not drawn)	active
CCCCC(CC)COC(=O)CCCCC(=O)OCc1ccccc1 (stereo not drawn)	inactive
CC(O)CO (stereo not drawn)	inactive
Oc1cccc(O)c1	inactive
CC1=C(/C=C/C(C)=C/C=C/C(C)=C/C(=O)O)C(C)(C)CCC1	active
CC[C@H](c1ccc(O)cc1)[C@@H](CC)c1ccc(O)cc1	active
CCC(C)(C)C1CCC(O)CC1 (stereo not drawn)	inactive
ClC1=C(Cl)C(Cl)(Cl)C(Cl)=C1Cl	inactive
O=c1c(-c2ccc(O)cc2)coc2cc(O)ccc12	inactive
